- assayed.target: Tyrosyl-DNA phosphodiesterase 2 (Homo sapiens, UniProt O95551)
- Sequence (O95551 whole entry): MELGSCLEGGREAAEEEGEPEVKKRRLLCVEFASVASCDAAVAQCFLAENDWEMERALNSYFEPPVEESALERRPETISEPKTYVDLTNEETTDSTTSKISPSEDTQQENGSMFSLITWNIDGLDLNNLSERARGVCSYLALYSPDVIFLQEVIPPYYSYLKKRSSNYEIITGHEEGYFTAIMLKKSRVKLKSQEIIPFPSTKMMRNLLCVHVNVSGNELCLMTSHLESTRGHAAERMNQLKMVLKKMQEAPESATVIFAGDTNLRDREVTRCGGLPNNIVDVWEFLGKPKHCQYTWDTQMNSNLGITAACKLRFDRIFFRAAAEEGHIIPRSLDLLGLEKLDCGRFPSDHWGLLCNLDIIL
- assay.overview: potency against TDP2 phosphodiesterase activity – biochemical, epi absorbance, IC50, dose response (AID 743297)
Active and inactive are the calls of the source.
Classes used: TRUE for active, FALSE for inactive

{"compound": "O=C1c2ccccc2C(=O)C12OC2c1cccc2ccccc12 (centres undefined)", "class": "TRUE"}
{"compound": "CCC(COC)Oc1cc(NCc2ccccc2)c2ncn(C(C)C)c2c1 (centres undefined)", "class": "FALSE"}
{"compound": "Cc1ccc(NC2=C(N3CCCCC3)C(=O)c3ccccc3C2=O)cc1", "class": "FALSE"}
{"compound": "Fc1ccc(Nc2cncc(-c3ccsc3)c2)cc1Cl", "class": "FALSE"}

----------
- assay.overview: P. falciparum Dd2 growth inhibitors, dose response, SYBR Green, cherry-picked samples (AID 1159567)
- Assay type: functional, cell-based
Calls of active or inactive are those of the source.
Outcomes: t (active), f (inactive)

{"query.smiles": "C[C@@H]1CN([C@H](C)CO)C(=O)c2cc(/C=C/c3ccccc3)cnc2O[C@H]1CN(C)C(=O)NC1CCCCC1", "class": "t"}
{"query.smiles": "CCCc1cn(CC[C@@H]2CC[C@@H](NS(=O)(=O)c3ccc(-c4ccccc4)cc3)[C@H](CO)O2)nn1", "class": "t"}
{"query.smiles": "Cc1ccccc1-c1ccc([C@H]2[C@H]3CNC[C@@H]2N3S(=O)(=O)c2cccc(F)c2)cc1", "class": "t"}
{"query.smiles": "CS(=O)(=O)N1[C@H](C#N)[C@H](c2ccccc2-c2ccccc2)[C@H]1CO", "class": "f"}
{"query.smiles": "N#C[C@@H]1[C@@H](c2ccc(C#Cc3ccc(F)cc3)cc2)[C@H](CO)N1C(=O)C1CCC1", "class": "t"}

----------
- assayed.target: Insulin-degrading enzyme (Homo sapiens, UniProt P14735)
- Sequence (P14735 whole entry): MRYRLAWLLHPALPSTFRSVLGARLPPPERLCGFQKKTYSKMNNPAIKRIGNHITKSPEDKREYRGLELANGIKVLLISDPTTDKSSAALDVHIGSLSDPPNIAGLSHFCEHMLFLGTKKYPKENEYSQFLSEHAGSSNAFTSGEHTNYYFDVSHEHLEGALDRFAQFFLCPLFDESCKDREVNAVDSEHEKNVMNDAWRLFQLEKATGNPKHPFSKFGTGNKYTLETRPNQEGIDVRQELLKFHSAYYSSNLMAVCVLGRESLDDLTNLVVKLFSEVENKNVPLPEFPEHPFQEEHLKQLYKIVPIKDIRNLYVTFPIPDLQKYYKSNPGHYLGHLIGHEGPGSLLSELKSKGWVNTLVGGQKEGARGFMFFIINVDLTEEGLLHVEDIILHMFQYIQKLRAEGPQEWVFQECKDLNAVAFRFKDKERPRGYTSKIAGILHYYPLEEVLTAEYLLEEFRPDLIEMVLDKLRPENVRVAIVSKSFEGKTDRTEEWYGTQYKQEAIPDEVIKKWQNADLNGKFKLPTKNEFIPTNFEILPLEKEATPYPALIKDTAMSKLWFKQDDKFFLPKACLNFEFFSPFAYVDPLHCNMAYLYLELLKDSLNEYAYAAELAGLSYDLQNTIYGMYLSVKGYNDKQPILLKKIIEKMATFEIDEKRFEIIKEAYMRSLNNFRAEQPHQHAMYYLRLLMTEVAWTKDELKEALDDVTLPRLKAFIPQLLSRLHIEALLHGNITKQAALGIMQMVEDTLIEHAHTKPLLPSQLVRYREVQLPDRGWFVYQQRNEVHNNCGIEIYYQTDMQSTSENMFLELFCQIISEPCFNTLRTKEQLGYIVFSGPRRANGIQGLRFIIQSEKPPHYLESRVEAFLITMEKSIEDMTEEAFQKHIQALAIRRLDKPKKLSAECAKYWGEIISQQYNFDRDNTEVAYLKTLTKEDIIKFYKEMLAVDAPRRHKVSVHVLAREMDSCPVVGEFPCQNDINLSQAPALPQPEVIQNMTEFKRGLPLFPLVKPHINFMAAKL
- assay.overview: cellular IDE activation of Abeta substrate cleavage – fluorescence polarization, HEK cells, dose response (AID 588439)
- Type: functional, cell-based
Active and inactive are the calls of the source.
Possible outcomes: active, inactive

{"compound": "C[n+]1c2cc(N)ccc2cc2ccc(N)cc21 [EUFLAVINE]", "class": "inactive"}
{"compound": "C#CCOCCOCCOCCNc1nc(N2CCN(C(=O)CCCCCCCCCCNC(=O)[C@H](CCCCN)n3cc(C)nn3)CC2)nc(N2CCN(C(=O)CCCCCCCCCCNC(=O)[C@@H]([C@H](C)O)n3cc(C)nn3)CC2)n1", "class": "inactive"}
{"compound": "CCn1c(=O)c([N+](=O)[O-])c(NCc2ccc3c(c2)OCO3)c2ccccc21", "class": "inactive"}
{"compound": "C#CCOCCOCCOCCNc1nc(N2CCN(C(=O)CCCCCCCCCCNC(=O)[C@@H](CCSC)n3cc(CCO)nn3)CC2)nc(N2CCN(C(=O)CCCCCCCCCCNC(=O)[C@H]([C@@H](C)CC)n3cc(CCCCN=C(N)N)nn3)CC2)n1", "class": "active"}
{"compound": "C#CCOCCOCCOCCNc1nc(N2CCN(C(=O)CCCCCCCCCCNC(=O)[C@H](CO)n3cc(CCCSC)nn3)CC2)nc(N2CCN(C(=O)CCCCCCCCCCNC(=O)[C@H](CCCN=C(N)N)n3cc(C[C@@H](C)CC)nn3)CC2)n1", "class": "active"}
